- target_system: NPR-B (Homo sapiens, UniProt P20594)
- Construct: endogenously NPR-B expressing GTM-3 cells; endogenous in cells; host or cells: GTM-3 (human glaucoma trabecular meshwork cells)
- Sequence (P20594 23-1047): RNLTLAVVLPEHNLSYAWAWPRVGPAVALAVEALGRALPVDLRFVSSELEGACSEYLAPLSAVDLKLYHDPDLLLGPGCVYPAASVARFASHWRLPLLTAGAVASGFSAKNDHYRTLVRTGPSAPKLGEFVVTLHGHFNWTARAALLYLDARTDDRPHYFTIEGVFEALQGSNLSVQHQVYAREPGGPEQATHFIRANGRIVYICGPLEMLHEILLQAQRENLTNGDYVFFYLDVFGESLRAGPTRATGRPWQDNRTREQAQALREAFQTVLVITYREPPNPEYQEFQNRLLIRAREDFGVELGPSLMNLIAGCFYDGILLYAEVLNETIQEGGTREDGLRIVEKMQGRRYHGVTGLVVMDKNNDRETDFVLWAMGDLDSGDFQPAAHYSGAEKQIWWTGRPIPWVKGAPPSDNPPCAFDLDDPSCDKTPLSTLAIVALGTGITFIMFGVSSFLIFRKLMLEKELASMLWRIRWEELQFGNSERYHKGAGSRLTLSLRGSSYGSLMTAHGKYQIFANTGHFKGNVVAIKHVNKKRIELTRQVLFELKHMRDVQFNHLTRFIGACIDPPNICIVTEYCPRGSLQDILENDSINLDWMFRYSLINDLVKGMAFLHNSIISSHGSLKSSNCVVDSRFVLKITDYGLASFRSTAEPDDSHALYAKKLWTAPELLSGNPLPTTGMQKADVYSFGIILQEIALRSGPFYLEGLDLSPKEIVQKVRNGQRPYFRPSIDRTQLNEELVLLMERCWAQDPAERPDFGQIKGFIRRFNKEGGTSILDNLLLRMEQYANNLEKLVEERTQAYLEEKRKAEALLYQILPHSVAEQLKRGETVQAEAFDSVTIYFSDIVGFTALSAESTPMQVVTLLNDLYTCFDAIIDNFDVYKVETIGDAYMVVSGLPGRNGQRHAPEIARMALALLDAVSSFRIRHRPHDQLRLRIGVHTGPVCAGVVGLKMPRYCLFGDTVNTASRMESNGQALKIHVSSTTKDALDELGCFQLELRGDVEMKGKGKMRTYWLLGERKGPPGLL
- protocol_description: NPR-B induced production of cyclic GMP in human glaucoma trabecular meshwork cells (GTM-3)
- Type: cell-based
- settings: NPR-B activation in GTM-3 cells; group set by EC50 and Emax (CNP = 100%); read-out: Activity (group)
pEC50: −log10 of the molar value. Numbered stars: 1 amine (or outer) side, 2 acyl side, 3 side chain; on linkers, the order of the positions; unused ones are H or OH. Square brackets hold non-standard residues; d marks the D form. Peptide text beside a SMILES is read from it. * marks the point of attachment. Pro(4R-NH2) = N[C@H]1CN[C@H](C(=O)O)C1; X2 = O=C([C@H]1CCCN([*:1])C1)[*:2]; NMeR = CN[C@@H](CCCNC(=N)N)C(=O)O; X1 = CCCCCCCCN1CCC[C@H](C(=O)*)C1; dDap(Me2) = CN(C)C[C@@H](N)C(=O)O; Hyp = O=C(O)[C@@H]1C[C@@H](O)CN1; NMeF = CN[C@@H](Cc1ccccc1)C(=O)O; NMeL = CN[C@@H](CC(C)C)C(=O)O; Octanoyl = CCCCCCCC(=O)*
Assign pEC50 to each entry below.

The compound listed as CCCCCCCC(=O)N1CCC[C@H](C(=O)N(C)[C@@H](Cc2ccccc2)C(=O)N[C@H](CN(C)C)C(=O)N[C@@H](CC(C)C)C(=O)N2C[C@H](O)C[C@H]2C(=O)N(C)[C@@H](CC(C)C)C(=O)N[C@@H](CC(=O)O)C(=O)N[C@@H](CCCNC(=N)N)C(=O)N[C@H](C(N)=O)[C@@H](C)CC)C1 [JAL-1579] (Octanoyl-[X2][NMeF][dDap(Me2)]L[Hyp][NMeL]DRI-NH2) has a reported pEC50 of > 6.00

The compound listed as CCCCCCCC(=O)N1CCC[C@H](C(=O)N[C@@H](Cc2ccccc2)C(=O)N[C@H](CN(C)C)C(=O)N[C@@H](CC(C)C)C(=O)N2C[C@H](O)C[C@H]2C(=O)N(C)[C@@H](CC(C)C)C(=O)N[C@@H](CC(=O)O)C(=O)N(C)[C@@H](CCCNC(=N)N)C(=O)N[C@H](C(N)=O)[C@@H](C)CC)C1 [JAL-1576] (Octanoyl-[X2]F[dDap(Me2)]L[Hyp][NMeL]D[NMeR]I-NH2) has a reported pEC50 of > 6.00

The compound listed as CCCCCCCCN1CCC[C@H](C(=O)N[C@@H](Cc2ccccc2)C(=O)N[C@H](CN(C)C)C(=O)N[C@@H](CC(C)C)C(=O)N2C[C@H](N)C[C@H]2C(=O)N(C)[C@@H](CC(C)C)C(=O)N[C@@H](CC(=O)O)C(=O)N[C@@H](CCCNC(=N)N)C(=O)N[C@H](C(N)=O)[C@@H](C)CC)C1 [JAL-1369] (X1-F[dDap(Me2)]L[Pro(4R-NH2)][NMeL]DRI-NH2) has a reported pEC50 of > 6.00

###

Assign EC50 to each entry below.
- target_system: NPR-B (Homo sapiens, UniProt P20594)
- Construct: endogenously NPR-B expressing GTM-3 cells; endogenous in cells; host or cells: GTM-3 (human glaucoma trabecular meshwork cells)
- protocol_description: NPR-B induced production of cyclic GMP in human glaucoma trabecular meshwork cells (GTM-3)
- Format: cell-based
- settings: NPR-B activation in GTM-3 cells; group set by EC50 and Emax (CNP = 100%); read-out: Activity (group)
Numbered stars: 1 amine (or outer) side, 2 acyl side, 3 side chain; on linkers, the order of the positions; unused ones are H or OH. Square brackets hold non-standard residues; d marks the D form. Peptide text beside a SMILES is read from it. * marks the point of attachment. X2 = O=C([C@H]1CCCN([*:1])C1)[*:2]; dDap(Me2) = CN(C)C[C@@H](N)C(=O)O; Hyp = O=C(O)[C@@H]1C[C@@H](O)CN1; NMeL = CN[C@@H](CC(C)C)C(=O)O; Octanoyl = CCCCCCCC(=O)*

Value sought: EC50, system NPR-B (Homo sapiens, UniProt P20594), item CCCCCCCCN1CCC[C@H](C(=O)N[C@@H](Cc2ccccc2)C(=O)N[C@H](CN(C)C)C(=O)N[C@@H](CC(C)C)C(=O)N2C[C@H](O)C[C@H]2C(=O)N(C)[C@@H](CC(C)C)C(=O)N[C@@H](CC(=O)O)C(=O)N[C@@H](CCCNC(=N)N)C(=O)N[C@H](C(N)=O)[C@@H](C)CC)C1 [JAL-1429] (HELM PEPTIDE1{[CCCCCCCCN1CCC[C@H](C(=O)[*:2])C1].F.[CN(C)C[C@@H](N[*:1])C(=O)[*:2]].L.[Hyp].[meL].D.R.I.[am]}$$$$V2.0) . Result: < 1 µM

Value sought: EC50, system NPR-B (Homo sapiens, UniProt P20594), item CCCCCCCC(=O)N[C@H](C)C(=O)N[C@@H](Cc1ccccc1)C(=O)N[C@H](CC(C)C)C(=O)N[C@@H](CC(C)C)C(=O)N1C[C@H](O)C[C@H]1C(=O)N(C)[C@@H](CC(C)C)C(=O)N[C@@H](C(=O)N[C@@H](CCCNC(=N)N)C(=O)N[C@H](C(N)=O)[C@@H](C)CC)c1cccs1 [JAL-1558] (HELM PEPTIDE1{[CCCCCCCC(=O)[*:2]].[dA].F.[dL].L.[Hyp].[meL].[O=C([C@H](N[*:1])c1cccs1)[*:2]].R.I.[am]}$$$$V2.0) . Result: < 1 µM

Value sought: EC50, system NPR-B (Homo sapiens, UniProt P20594), item CCCCCCCC(=O)N1CCC[C@H](C(=O)N[C@@H](Cc2ccccc2)C(=O)N[C@H](CN(C)C)C(=O)N[C@@H](CC(C)C)C(=O)N2C[C@H](O)C[C@H]2C(=O)N(C)[C@@H](CC(C)C)C(=O)N[C@@H](CC(=O)O)C(=O)N2CCC[C@H]2C(=O)N[C@H](C(N)=O)[C@@H](C)CC)C1 [JAL-1580] (Octanoyl-[X2]F[dDap(Me2)]L[Hyp][NMeL]DPI-NH2) . Result: < 1 µM
